# particulars: in 2-butanone, 303.18 K
Each entry below carries its reported solubility (mole fraction).
# print the numeric value only

structure_notation=O=P(O)(CO)c1ccccc1 result=0.0019

Reported solubility (mole fraction), compound `O=C(O)CCP(=O)(O)c1ccccc1` : ____
0.00103

Now the same for `COc1ccc(P(=O)(c2ccc(OC)cc2)c2ccc(OC)cc2)cc1`
0.00814

Now the same for `COc1ccc(P(c2ccc(OC)cc2)c2ccc(OC)cc2)cc1`
0.00749

###

# particulars: in ethyl acetate, 303.18 K
parameter.measured: solubility (mole fraction)

Reported solubility (mole fraction), molecule `O=C(O)CCP(=O)(O)c1ccccc1` : ____
0.00162

###

# particulars: in cyclohexane, 323.16 K
parameter.measured: solubility (mole fraction)
# print the numeric value only

compound=O=P(O)(CO)c1ccccc1 result=0.0017
compound=O=C(O)CCP(=O)(O)c1ccccc1 result=0.00263

Now for the compound whose solubility (mole fraction) we want.
Reported solubility (mole fraction), compound O=P1(O)OCC2(CO1)COP(=O)(O)OC2 (stereo not drawn) : ____
0.00037

###

# particulars: in 2-ethoxyethanol, 298.24 K
parameter.measured: solubility (mole fraction)

Reported solubility (mole fraction), compound O=P1(Oc2ccccc2)OCC2(CO1)COP(=O)(Oc1ccccc1)OC2 (stereo unspecified) : ____
0.00392

###

# particulars: in benzene, 308.17 K
parameter.measured: solubility (mole fraction)

Reported solubility (mole fraction), compound O=P1(O)OCC2(CO1)COP(=O)(O)OC2 (stereo unspecified) : ____
0.00059

###

# particulars: in methanol, 318.16 K
parameter.measured: solubility (mole fraction)
# print the numeric value only

Reported solubility (mole fraction), compound O=P1(Oc2ccccc2)OCC2(CO1)COP(=O)(Oc1ccccc1)OC2 (stereo unspecified) : ____
0.00443

###

# particulars: in 1,4-dioxane, 338.25 K
parameter.measured: solubility (mole fraction)
# print the numeric value only

Reported solubility (mole fraction), compound O=P1(Oc2ccccc2)OCC2(CO1)COP(=O)(Oc1ccccc1)OC2 (stereo unspecified) : ____
0.00499

###

# particulars: in cyclohexane, 303.18 K
Each entry below carries its reported solubility (mole fraction).
# print the numeric value only

structure_notation=O=C(O)CCP(=O)(O)c1ccccc1 result=0.00128

Now for the compound whose solubility (mole fraction) we want.
Reported solubility (mole fraction), compound `O=P(O)(CO)c1ccccc1` : ____
0.0013

###

# particulars: in dichloromethane, 305.2 K
parameter.measured: solubility (mole fraction)
# print the numeric value only

Reported solubility (mole fraction), compound O=P1(O)OCC2(CO1)COP(=O)(O)OC2 (stereo unspecified) : ____
0.00048

###

# particulars: in chloroform, 333.15 K
parameter.measured: solubility (mole fraction)
# print the numeric value only

Reported solubility (mole fraction), molecule `O=C(O)CCP(=O)(O)c1ccccc1` : ____
0.00133

###

# particulars: in chloroform, 308.14 K
parameter.measured: solubility (mole fraction)
# print the numeric value only

Reported solubility (mole fraction), compound `O=C(O)CCP(=O)(O)c1ccccc1` : ____
0.00052

###

# particulars: in ethyl acetate, 303.16 K
parameter.measured: solubility (mole fraction)

Reported solubility (mole fraction), compound O=P1(O)OCC2(CO1)COP(=O)(O)OC2 (stereo unspecified) : ____
0.00109

###

# particulars: in ethanol, 328.15 K
parameter.measured: solubility (mole fraction)

Reported solubility (mole fraction), compound `COc1ccc(P(=O)(c2ccc(OC)cc2)c2ccc(OC)cc2)cc1` : ____
0.00236

###

# particulars: in acetonitrile, 313.35 K
parameter.measured: solubility (mole fraction)
# print the numeric value only

Reported solubility (mole fraction), compound O=P1(Oc2ccccc2)OCC2(CO1)COP(=O)(Oc1ccccc1)OC2 (stereo unspecified) : ____
0.00318

###

# particulars: in methanol, 323.16 K
parameter.measured: solubility (mole fraction)

Reported solubility (mole fraction), compound `COc1ccc(P(c2ccc(OC)cc2)c2ccc(OC)cc2)cc1` : ____
0.00107

###

# particulars: in 2-butanone, 298.17 K
parameter.measured: solubility (mole fraction)
# print the numeric value only

Would you please look over these solved cases?
compound="O=P1(O)OCC2(CO1)COP(=O)(O)OC2 (stereo not given)" parameter_measured="solubility (mole fraction)" result=0.0007
compound=COc1ccc(P(=O)(c2ccc(OC)cc2)c2ccc(OC)cc2)cc1 parameter_measured="solubility (mole fraction)" result=0.00725
compound=O=C(O)CCP(=O)(O)c1ccccc1 parameter_measured="solubility (mole fraction)" result=0.00077
compound=O=P(O)(CO)c1ccccc1 parameter_measured="solubility (mole fraction)" result=0.0017

Now for the compound whose solubility (mole fraction) we want.
Reported solubility (mole fraction), compound `COc1ccc(P(c2ccc(OC)cc2)c2ccc(OC)cc2)cc1` : ____
0.00684

###

# particulars: in benzene, 328.43 K
parameter.measured: solubility (mole fraction)

Reported solubility (mole fraction), compound O=P1(Oc2ccccc2)OCC2(CO1)COP(=O)(Oc1ccccc1)OC2 (stereo unspecified) : ____
0.00138

###

# particulars: in 2-ethoxyethanol, 293.16 K
Each entry below carries its reported solubility (mole fraction).

Would you please look over these solved cases?
structure_notation=O=C(O)CCP(=O)(O)c1ccccc1 result=0.0461
structure_notation=COc1ccc(P(c2ccc(OC)cc2)c2ccc(OC)cc2)cc1 result=0.00522
structure_notation=O=P(O)(CO)c1ccccc1 result=0.0461

Reported solubility (mole fraction), compound `COc1ccc(P(=O)(c2ccc(OC)cc2)c2ccc(OC)cc2)cc1` : ____
0.00573

###

# particulars: in chloroform, 333.17 K
parameter.measured: solubility (mole fraction)
# print the numeric value only

Reported solubility (mole fraction), molecule O=P1(O)OCC2(CO1)COP(=O)(O)OC2 (stereo unspecified) : ____
0.00192

###

# particulars: in pyridine, 328.45 K
parameter.measured: solubility (mole fraction)
# print the numeric value only

Reported solubility (mole fraction), compound O=P1(Oc2ccccc2)OCC2(CO1)COP(=O)(Oc1ccccc1)OC2 (stereo unspecified) : ____
0.0141

###

# particulars: in 1,4-dioxane, 323.35 K
parameter.measured: solubility (mole fraction)

Reported solubility (mole fraction), molecule O=P1(Oc2ccccc2)OCC2(CO1)COP(=O)(Oc1ccccc1)OC2 (stereo unspecified) : ____
0.00335

###

# particulars: in methanol, 303.18 K
parameter.measured: solubility (mole fraction)

Reported solubility (mole fraction), compound `COc1ccc(P(c2ccc(OC)cc2)c2ccc(OC)cc2)cc1` : ____
0.0004

###

# particulars: in 2-ethoxyethanol, 348.17 K
parameter.measured: solubility (mole fraction)
# print the numeric value only

Reported solubility (mole fraction), compound O=P1(Oc2ccccc2)OCC2(CO1)COP(=O)(Oc1ccccc1)OC2 (stereo unspecified) : ____
0.0185

###

# particulars: in cyclohexane, 338.15 K
parameter.measured: solubility (mole fraction)
# print the numeric value only

Reported solubility (mole fraction), compound O=P1(O)OCC2(CO1)COP(=O)(O)OC2 (stereo unspecified) : ____
0.00052

###

Each entry below carries its reported solubility (mole fraction).
# particulars: in 2-ethoxyethanol, 318.17 K
# print the numeric value only

structure_notation=O=P(O)(CO)c1ccccc1 result=0.0777

Reported solubility (mole fraction), compound `COc1ccc(P(c2ccc(OC)cc2)c2ccc(OC)cc2)cc1` : ____
0.0168

Now the same for `O=C(O)CCP(=O)(O)c1ccccc1`
0.0777

Now the same for `COc1ccc(P(=O)(c2ccc(OC)cc2)c2ccc(OC)cc2)cc1`
0.0175

###

# particulars: in 2-butanone, 293.16 K
parameter.measured: solubility (mole fraction)
# print the numeric value only

compound=COc1ccc(P(=O)(c2ccc(OC)cc2)c2ccc(OC)cc2)cc1 result=0.00642

Reported solubility (mole fraction), compound `COc1ccc(P(c2ccc(OC)cc2)c2ccc(OC)cc2)cc1` : ____
0.00621

Now the same for O=P1(O)OCC2(CO1)COP(=O)(O)OC2 (stereo not given)
0.0006

Now the same for `O=C(O)CCP(=O)(O)c1ccccc1`
0.00061

Now the same for `O=P(O)(CO)c1ccccc1`
0.0015
